# tested-on: human CD3 (human, UniProt P07766 23-207; P04234 22-171; P09693 23-182)
# Sequence (P07766 23-207, chain 1 of 3): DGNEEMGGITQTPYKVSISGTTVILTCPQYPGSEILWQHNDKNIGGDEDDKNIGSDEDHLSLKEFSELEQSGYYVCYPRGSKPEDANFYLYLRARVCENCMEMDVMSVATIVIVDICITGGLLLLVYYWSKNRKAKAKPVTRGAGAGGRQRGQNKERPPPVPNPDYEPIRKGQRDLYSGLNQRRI
# Sequence (P04234 22-171, chain 2 of 3): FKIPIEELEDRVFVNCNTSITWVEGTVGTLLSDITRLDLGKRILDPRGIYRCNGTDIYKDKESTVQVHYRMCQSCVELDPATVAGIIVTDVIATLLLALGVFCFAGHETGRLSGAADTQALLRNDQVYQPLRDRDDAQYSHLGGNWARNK
# Sequence (P09693 23-182, chain 3 of 3): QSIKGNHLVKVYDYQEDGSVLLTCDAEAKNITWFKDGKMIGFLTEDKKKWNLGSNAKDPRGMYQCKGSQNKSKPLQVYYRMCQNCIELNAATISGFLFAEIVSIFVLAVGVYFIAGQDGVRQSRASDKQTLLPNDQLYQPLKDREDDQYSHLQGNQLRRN
# protocol-notes: cell-based or functional assay
measured-parameter: CD4 EC50 (nM); CD69/CD25 on human T cells, plate-coated antibody
Give just the number in nM; leave the unit off.

binder	readout-value
mAb 85 (antibody, V domains shown) VH: QVQLVQSGAEVKKPGASVKVSCKASGYTVTGYYMHWVRQAPGQGLEWMGWINPNSGGTNFAQNFQGRVTMTRDTSISTFYMDLNRLRSDDTAVYYCARGGAPVSYWFFDLWGRGTLVTVSS VL: DIQMTQSPSSLSASVGDRVTITCRASQSISRYLNWYQQKPGKAPKVLIYNTSSLKSGVPSRFSGSGSGTDFTLTISSLQPEDFGTFYCQQSHSTPFTFGPGTKVDIK	9.43
mAb 159 (antibody, V domains shown) VH: EVQLVESGGGLVQPGRSLRLSCAASGFTFNGYTMHWVRQVPGKGLEWVSGISWNSGSVGYADSVKGRFTISRDNAKNSLFLQMNSLRAEDTALYYCAKDSSGYGHYYYYYMDVWGKGTTVTVSS VL: EIVMTQSPATLSVSPGERATLSCRASQSVRNNLAWYQQKPGQAPRLLIYGASTRATGIPARFSGSGSGTEFTLTISSLQSEDFALYYCQLYNNWPHFGQGTRLEIK	12
mAb 66 (antibody, V domains shown) VH: QVQLVQSGAEVKKPGASVKVSCKASGYTVTGYYMHWVRQAPGQGLEWMGWINPNSGGTNFAQNFQGRVTMTRDTSISTFYMDLSRLRSDDTAVYYCARGGAPVSYWFFDLWGRGTLVTVSS VL: DIQMTQSPSSLSASVGDRVTITCRASQSISRYLNWYQQKPGKAPKVLIYNTSSLKSGVPSRFSGSGSGTDFTLTISSLQPEDFATLYCQQSHSTPFTFGPGTKVDIK	13

## Task For the binder mAb 96 (antibody, V domains shown) VH: QAHLVESGGGVVQPGRSLRLSCSASGFTFSGYGMHWVRQAPGKGLEWVSLIYFDGRNKYYADSVKGRFTISRDNSKNTLYLQMNSLRAEDTAVYYCARGGGYNWFDPWGQGTLVTVSS VL: DIQMTQSPSSLSASVGDRVTITCRASQSINNYLSWYQQKPGKAPKLLIYLASNLQSGVPSRFSGNGSGTDFTLTISSLQPEDFATYYCQLSYRSPFTFGPGTKVDVK , give its measured CD4 EC50 (nM); CD69/CD25 on human T cells, plate-coated antibody value.
## Result 17.2

## Task For the binder mAb 145 (antibody, V domains shown) VH: QVQLVQSGAEVKKPGASVKVSCKASGYTFTNYYIHWVRQAPGQGLDWMGIINPSGGITGYAQKFQGRVTMTRDTSTTTVYMELSSLRSDDTAVYYCARGVRGNYYYYYMDVWGKGTTVTVSS VL: EIVLTQSPDFQSVTPKEKVTITCRASQSIGSKLHWYQQKPDQSPKLLIKFASQSFSGVPSRFSGSGSGTDFNLTINSLEPEDAATFYCHQSSGLPYTFGQGTKLEIK , give its measured CD4 EC50 (nM); CD69/CD25 on human T cells, plate-coated antibody value.
## Result 13.3

## Task For the binder mAb 161 (antibody, V domains shown) VH: EVQLVESGGGLVQPGRSLRLSCAASGITFADYTMHWVRQAPGKGLEWVSGISWNSGSIDYADSVKGRFTISRDNAKKTLYLQMNRLRAEDTALYYCAKDSSGYGHYYFYYLDVWGKGTTVTVSS VL: EIVMTQSPATLSVSPGERATLSCRASQSVSNNLAWYQQKPGQAPRLLIYSTSTRATGIPARFSGSRSGTEFTLTISSLQSEDSAVYYCQQYNNWPHFGQGTRLEIK , give its measured CD4 EC50 (nM); CD69/CD25 on human T cells, plate-coated antibody value.
## Result 6.76

## Task For the binder mAb 99 (antibody, V domains shown) VH: QGQLVESGGGVVQPGRSLRLSCAASGFTFRGFGMHWVRQAPGKGLEWVAIIYYDGKNKYYADSVKGRFTISRDNSKNTLYLQMNSLRAEDTAVYYCAKGGGYNWFDPWGQGTLVTVSS VL: DIQMTQSPSSLSASVGDRVTITCRASQSISTYLNWYQQKPGKAPKLLIYSASSLQSGVPSRFSGSGSGTDFTLTISNLQPEDFAIYYCQRSYSPPFTFGPGTKLDIR , give its measured CD4 EC50 (nM); CD69/CD25 on human T cells, plate-coated antibody value.
## Result 11.7

## Task For the binder mAb 97 (antibody, V domains shown) VH: QGQLVESGGGVVQPGRSLRLSCAASGFTFRGYGMHWVRQAPGKGLEWVAIIYYDGKNKYYADSVKGRFTISRDNSKNTLYLQMNNLRVEDTAVYYCARGGGYNWFDPWGQGTLVTVSS VL: DIQMTQSPSSLSASIGDRVTITCRASQSISNYLNWYQQKPGKAPKLLIYSASSLQSGVPSRFSGSGSGTDFTLTISNLQPEDFAIYYCQRSYSPPFTFGPGTKLDIR , give its measured CD4 EC50 (nM); CD69/CD25 on human T cells, plate-coated antibody value.
## Result 12.6

## Task For the binder mAb 119 (antibody, V domains shown) VH: EVQLVESGGGLVQPGRSLRLSCAASGFTFDDYTMHWVRQAPGKGLEWVSGISWNSGSIGYADSVKGRFTISRDNAKNSLYLQMNSLRAEDTALYYCSKDSSGYGYYLNYSLDVWGKGTTVTVSS VL: EIVMTQSPATLSVSPGERATLSCRASQSVSNLAWYQQKPGQAPRLLIYGASTRATGIPARFSGSGSGTEFTLTISSLQSEDFAVYYCQQYNNWPHFGQGTRLQIK , give its measured CD4 EC50 (nM); CD69/CD25 on human T cells, plate-coated antibody value.
## Result 12.9

## Task For the binder mAb 47 (antibody, V domains shown) V domain 1: QAQLVQSGSELKKPGASVKVSCKASGYTFTKHSMNWVRQAPGQGLEWMGWINTNTGNPTYAQGFTGRFVFSLDTSVTTAYLQISSLKAEDTAVYYCAREGDYDFWSGFFNFDYWGQGTLVTVSS V domain 2: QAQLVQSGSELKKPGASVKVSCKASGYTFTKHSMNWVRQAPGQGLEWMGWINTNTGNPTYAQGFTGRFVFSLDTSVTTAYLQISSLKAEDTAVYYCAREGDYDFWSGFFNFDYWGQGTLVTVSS , give its measured CD4 EC50 (nM); CD69/CD25 on human T cells, plate-coated antibody value.
## Result 23.4
